# Test system: HOP-62
# PROCEDURE DETAILS: Growth inhibition of human HOP62 cells
# Assay type: functional
compounds and their reported GI50

Reference set, count: 3
>>> result("CC(C)C[C@H](NC(=O)CCn1ccc2ccc(Br)cc2c1=O)B(O)O")
"2.63 µM"
>>> result("CC(C)C[C@H](NC(=O)Cn1ccc2ccc(Br)cc2c1=O)B(O)O")
"4.94 µM"
>>> result("CC(C)C[C@H](NC(=O)CCn1ccc2ncccc2c1=O)B(O)O")
"29.8 µM"

GET GI50 | system: HOP-62 | item: `CC(C)C[C@H](NC(=O)[C@H](Cc1ccccc1)NC(=O)c1cnccn1)B(O)O`
0.00447 µM

GET GI50 | system: HOP-62 | item: `CC(C)C[C@H](NC(=O)CCn1ccc2ccccc2c1=O)B(O)O`
4.51 µM
